Entry source: patent US20220151962A1

// reported IC50 per item
- Assay Target: HDAC3/NcoR2 complex (Homo sapiens, UniProt O15379)
- Construct: purchased BPS Bioscience 50003
- Sequence (O15379 whole entry): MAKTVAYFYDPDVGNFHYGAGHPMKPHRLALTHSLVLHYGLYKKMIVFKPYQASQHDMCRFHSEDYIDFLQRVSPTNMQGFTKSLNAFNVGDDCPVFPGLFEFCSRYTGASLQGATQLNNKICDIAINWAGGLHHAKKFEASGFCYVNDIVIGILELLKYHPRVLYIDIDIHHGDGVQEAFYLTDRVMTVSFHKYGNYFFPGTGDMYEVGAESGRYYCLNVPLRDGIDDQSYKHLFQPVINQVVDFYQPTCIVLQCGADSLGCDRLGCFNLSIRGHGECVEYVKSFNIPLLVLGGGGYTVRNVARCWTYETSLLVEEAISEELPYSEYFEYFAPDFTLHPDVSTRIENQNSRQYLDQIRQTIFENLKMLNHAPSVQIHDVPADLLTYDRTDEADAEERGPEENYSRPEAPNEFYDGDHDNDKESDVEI
- Sequence (Q9Y618 395-489 partner limits assumed): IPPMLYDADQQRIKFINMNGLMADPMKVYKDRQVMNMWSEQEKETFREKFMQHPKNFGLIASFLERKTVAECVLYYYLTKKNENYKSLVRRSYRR
- Procedure Text: HDAC-Glo I/II assay, HDAC3/NcoR2 complex
- Assay type: biochemical
- Conditions: recombinant human HDAC3/NcoR2 complex, read-out: pIC50 HDAC3 Glo (converted)

Examples with their reported IC50 follow.
[
  {
    "Smiles": "CN(CCCC(=O)NO)CCC(=O)Nc1ccccc1",
    "IC50": "79.4 µM"
  },
  {
    "Smiles": "CN(CCCNC(=O)c1ccccc1)CCCC(=O)NO",
    "IC50": "> 100 µM"
  },
  {
    "Smiles": "CCCCN(CCCC(=O)NO)CCC(=O)Nc1ccccc1",
    "IC50": "~200 µM"
  },
  {
    "Smiles": "Cc1[nH]c2ccccc2c1C(=O)NCCN(C)CCCC(=O)NO",
    "IC50": "~79.4 µM"
  }
]

Using the record for "CN(CCCC(=O)NO)CCCC(=O)Nc1ccccc1" , report its IC50.
> 100 µM

Using the record for "CN(CCCC(=O)NO)CCNC(=O)c1ccc2cn[nH]c2c1" , report its IC50.
> 100 µM

Using the record for "O=C(CCCN(CCC(=O)Nc1ccccc1)C1CC1)NO" , report its IC50.
126 µM

Using the record for "CN(CCCC(=O)NO)CCNC(=O)c1cccc(N)c1" , report its IC50.
> 100 µM

Using the record for "CN(CCCC(=O)NO)CCNC(=O)c1ccc(/C(N)=N/O)cc1" , report its IC50.
> 100 µM

Using the record for "CN(CCCC(=O)NO)CCNC(=O)c1ccc(N)cc1" , report its IC50.
> 100 µM

----------
- Assay Target: HDAC1 (Homo sapiens, UniProt Q13547)
- Construct: purchased BPS Bioscience 50051
- Sequence (Q13547 whole entry): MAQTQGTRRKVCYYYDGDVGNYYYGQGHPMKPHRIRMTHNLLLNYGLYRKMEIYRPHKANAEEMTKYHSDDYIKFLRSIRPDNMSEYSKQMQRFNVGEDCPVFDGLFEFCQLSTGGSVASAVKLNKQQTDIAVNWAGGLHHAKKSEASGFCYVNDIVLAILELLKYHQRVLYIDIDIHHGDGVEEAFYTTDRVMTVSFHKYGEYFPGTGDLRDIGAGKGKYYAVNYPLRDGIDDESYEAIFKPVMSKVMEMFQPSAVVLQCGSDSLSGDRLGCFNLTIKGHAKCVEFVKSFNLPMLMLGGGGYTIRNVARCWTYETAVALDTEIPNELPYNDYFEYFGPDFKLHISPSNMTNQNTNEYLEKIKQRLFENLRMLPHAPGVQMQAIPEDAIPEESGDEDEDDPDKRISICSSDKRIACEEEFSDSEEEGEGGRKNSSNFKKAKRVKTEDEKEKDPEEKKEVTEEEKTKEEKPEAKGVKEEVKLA
- Procedure Text: HDAC-Glo I/II assay, HDAC1
- Type: biochemical
- Conditions: recombinant human HDAC1, HDAC-Glo; read-out: pIC50 HDAC1 Glo (converted)
just bin them by IC50: lo (below 10 µM), mid (10 µM to below 50 µM), hi (50 µM or more)

Some solved entries appear below for comparison.
[
  {
    "Smiles": "CN(CCCC(=O)NO)CCNC(=O)c1ccccc1Br",
    "Assay Target": "HDAC1 (Homo sapiens, UniProt Q13547)",
    "Category": "mid"
  },
  {
    "Smiles": "CCCN(CCCC(=O)NO)CCC(=O)Nc1ccccc1",
    "Assay Target": "HDAC1 (Homo sapiens, UniProt Q13547)",
    "Category": "hi"
  }
]

Band of "COc1ccc(C(=O)NCCN(C)CCCC(=O)NO)c2ccccc12" ?
lo

Band of "CN(CCCC(=O)NO)CCNC(=O)c1ccc(-c2ccccc2)cc1" ?
lo

Band of "Cc1[nH]c2ccccc2c1C(=O)NCCN(C)CCCC(=O)NO" ?
lo

Band of "CN(CCCC(=O)NO)CCNC(=O)c1c2ccccc2cc2ccccc12" ?
lo

Band of "CN(CCCC(=O)NO)CCNC(=O)c1ccccc1O" ?
hi

Band of "CN(CCNC(=O)CS)CCNC(=O)c1ccccc1" ?
mid

Band of "CN(CCCC(=O)NO)CCNS(=O)(=O)c1ccccc1" ?
mid

Band of "O=C(CCCN(CCC(=O)Nc1ccccc1)C1CC1)NO" ?
mid
